# tested-target: HLA-A*23:01
# procedure-details: IEDB peptide-MHC binding, purified MHC/competitive/fluorescence; filed as Kd, often an IC50 or EC50 that approximates it; bounds were set here for any values at or beyond the usual limits of such assays
# experimental-parameters: source organism: Salmonella enterica subsp. enterica serovar Typhi
pKd: −log10 of the molar value.
assay-endpoint: pKd

Input line: Return pKd (reported value) for this sequence: `NTDEIPELI`
Output line: ≤ 4.70

* * *

# tested-target: HLA-B*07:02
# procedure-details: IEDB peptide-MHC binding, purified MHC/direct/fluorescence; filed as Kd, often an IC50 or EC50 that approximates it; bounds were set here for any values at or beyond the usual limits of such assays
# experimental-parameters: source organism: Escherichia coli O157:H7
assay-endpoint: Kd (nM)
Numbers only; they are read as nM.

Input line: Return Kd (reported value) for this sequence: `ESMMGSTAM`
Output line: 316

* * *

# tested-target: HLA-B*27:03
# procedure-details: IEDB peptide-MHC binding, purified MHC/competitive/fluorescence; filed as Kd, often an IC50 or EC50 that approximates it; bounds were set here for any values at or beyond the usual limits of such assays
# experimental-parameters: source organism: Salmonella enterica subsp. enterica serovar Typhi
assay-endpoint: Kd

Input line: Enter measured Kd, system HLA-B*27:03, for the sequence shown: `NTDEIPELI`
Output line: ≥ 20 µM

* * *

# tested-target: HLA-B*35:01
# procedure-details: IEDB peptide-MHC binding, purified MHC/competitive/radioactivity; filed as Kd, often an IC50 or EC50 that approximates it; bounds were set here for any values at or beyond the usual limits of such assays
# experimental-parameters: source organism: Vaccinia virus WR
# note: exactly 500 nM is not below, so it is false (0); use true (1) for Kd strictly under it

// below: answered sequences
>  <record-sequence>
NPIINTHSF

>  <answer-label>
true (1)

$$$$
>  <record-sequence>
NPSILPSLI

>  <answer-label>
false (0)

$$$$

Input line: For `TPIFSDLLKY` , is the recorded Kd below the cut-off of 500 nM?
Output line: false (0)

Input line: For `FPQHVITKDV` , is the recorded Kd below the cut-off of 500 nM?
Output line: true (1)

Input line: For `EPLSPDTCL` , is the recorded Kd below the cut-off of 500 nM?
Output line: false (0)

Input line: For `LPLTSLVITY` , is the recorded Kd below the cut-off of 500 nM?
Output line: true (1)

Input line: For `HPDFCKNRRY` , is the recorded Kd below the cut-off of 500 nM?
Output line: false (0)

Input line: For `SPLTLLIKTL` , is the recorded Kd below the cut-off of 500 nM?
Output line: false (0)

* * *

# tested-target: HLA-B*40:01
# procedure-details: IEDB peptide-MHC binding, purified MHC/direct/fluorescence; filed as Kd, often an IC50 or EC50 that approximates it; bounds were set here for any values at or beyond the usual limits of such assays
# experimental-parameters: source organism: Rickettsia felis
assay-endpoint: Kd

Input line: Return Kd (reported value) for this sequence: `GSFKEYVFW`
Output line: ≥ 20 µM

* * *

# tested-target: HLA-B*27:20
# procedure-details: IEDB peptide-MHC binding, purified MHC/competitive/fluorescence; filed as Kd, often an IC50 or EC50 that approximates it; bounds were set here for any values at or beyond the usual limits of such assays
# experimental-parameters: source organism: Shigella boydii CDC 3083-94
assay-endpoint: Kd
For clarity, give the value followed by its unit.

Input line: Enter measured Kd, system HLA-B*27:20, for the sequence shown: `GMMRWCMPV`
Output line: 0.4 nM
